pIC50: −log10 of the molar value.
Field: pIC50. System: Coagulation factor X (Homo sapiens, UniProt P00742). Provenance: assorted publications.

Completed entries (count: 3):
>  <compound>
O=S(=O)(O)OC[C@@H]1O[C@H](O[C@H]2O[C@@H](COS(=O)(=O)O)[C@@H](O[C@@H]3O[C@@H](COS(=O)(=O)O)[C@@H](OS(=O)(=O)O)[C@H](OS(=O)(=O)O)[C@@H]3O[C@H]3O[C@@H](COS(=O)(=O)O)[C@H](OS(=O)(=O)O)[C@H](OS(=O)(=O)O)[C@@H]3OS(=O)(=O)O)[C@H](OS(=O)(=O)O)[C@@H]2OS(=O)(=O)O)[C@@H](OS(=O)(=O)O)[C@@H](OS(=O)(=O)O)[C@H]1OS(=O)(=O)O (stereo in doubt; 14)

>  <pIC50>
< 3.32

$$$$
>  <compound>
N=C(N)c1ccc(S(=O)(=O)NCCn2c(-c3cccc(N)c3)c(Cl)nc(NC3CCC3)c2=O)cc1

>  <pIC50>
< 4.52

$$$$
>  <compound>
N=C(N)N1CCCc2ccc(OCC3(C(=O)O)CCN(c4ccncc4)CC3)cc2C1

>  <pIC50>
< 5.00

$$$$

Request - read-out pIC50 | tested on Coagulation factor X (Homo sapiens, UniProt P00742) | compound Cc1cc(C(=O)Nc2ccc(-c3ccccc3S(N)(=O)=O)cc2)n(-c2cc3ccccc3cc2CO)n1
6.32

Query pIC50 on Coagulation factor X (Homo sapiens, UniProt P00742) for CN1CCc2nc(C(=O)N[C@@H]3C[C@H]3NC(=O)c3cc4cc(Cl)ccc4[nH]3)sc2C1 (relative stereo)
< 5.00

* * *

Field: IC50. System: Coagulation factor X (Homo sapiens). Provenance: assorted publications.
Give a bare numeral; the unit nM is implied.

Recorded IC50, per entry:
>  <compound>
COc1ccc(NC(=O)c2ccc(-n3ccccc3=O)cc2)c(C(=O)Nc2ccc(Cl)cc2)c1

>  <IC50 (nM)>
179

$$$$
>  <compound>
CN1CCN(c2ccc(NC(=O)c3ccc(-c4ccccc4S(N)(=O)=O)cc3)c(C(=O)Nc3ccc(Br)cn3)c2)CC1

>  <IC50 (nM)>
1550

$$$$
>  <compound>
Cc1nccn1CCC1CCN(C(=O)CCS(=O)(=O)c2ccc3cc(Cl)ccc3c2)CC1

>  <IC50 (nM)>
37

$$$$
>  <compound>
Nc1ccc(C(=O)Nc2ccc(Br)cn2)c(NC(=O)c2ccc(-c3ccccc3S(N)(=O)=O)cc2)c1

>  <IC50 (nM)>
6.2

$$$$
>  <compound>
COc1ccc(-c2ccc(C(=O)NCC(C)C)cc2C(=O)O)c(C(=O)Nc2ccc(C(=N)N)cc2)c1

>  <IC50 (nM)>
6630

$$$$

Can you look up IC50 on Coagulation factor X (Homo sapiens) for CC1CC(=O)NN=C1c1ccc2[nH]c(-c3ccc(Br)s3)nc2c1 (stereo not given) ?
980

// map CN1CCc2nc(C(=O)N3CCC(NC(=O)c4ccc(Cl)s4)CC3)sc2C1 to recorded IC50 (system: Coagulation factor X (Homo sapiens))
1020

What reported IC50 corresponds to COc1ccc(NC(=N[C@H]2CCCCN(CC(=O)N3CCCC3)C2=O)NC(=O)c2cccc(Cl)c2)cc1 on Coagulation factor X (Homo sapiens)?
267

Form field - read-out: IC50; system: Coagulation factor X (Homo sapiens); submitted item: CCOC(=O)[C@]1(C)CCC[C@@]2(C)[C@@H]3CC[C@@]4(C)C[C@]3(CC[C@@H]21)C/C4=N\NC(=S)Nc1ccc([N+](=O)[O-])cc1
8460

Give the reported IC50 for CCOC(=O)[C@]1(C)CCC[C@@]2(C)[C@@H]3CC[C@@]4(C)C[C@]3(CC[C@@H]21)C[C@H]4O (system: Coagulation factor X (Homo sapiens)).
12700
